Target Entity: hOCT2 (Homo sapiens)
Construct: expressed in transfected cells
Sequence (O15244 1-555): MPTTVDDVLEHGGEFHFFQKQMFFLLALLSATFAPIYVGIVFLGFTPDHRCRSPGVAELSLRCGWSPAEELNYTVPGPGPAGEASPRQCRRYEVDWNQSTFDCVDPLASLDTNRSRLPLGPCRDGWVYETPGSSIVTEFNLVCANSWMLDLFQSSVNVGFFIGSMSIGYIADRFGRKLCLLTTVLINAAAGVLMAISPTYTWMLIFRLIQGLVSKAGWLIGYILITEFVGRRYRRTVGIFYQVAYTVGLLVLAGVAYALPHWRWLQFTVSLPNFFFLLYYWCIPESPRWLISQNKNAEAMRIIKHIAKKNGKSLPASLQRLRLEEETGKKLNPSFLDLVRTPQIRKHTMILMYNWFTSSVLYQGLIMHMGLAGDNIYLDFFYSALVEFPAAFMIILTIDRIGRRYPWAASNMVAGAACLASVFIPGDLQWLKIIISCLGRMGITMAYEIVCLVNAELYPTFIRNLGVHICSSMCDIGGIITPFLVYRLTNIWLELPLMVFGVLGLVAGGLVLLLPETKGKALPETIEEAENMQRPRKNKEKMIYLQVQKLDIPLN
Experiment Summary: [3H]MPP+ uptake inhibition assay, HEK293 cells stably expressing hOCT2
Assay type: cell-based
Decision: IC50 beneath 20 µM gives 1 (yes); IC50 meeting or exceeding 20 µM gives 0 (no).

Below, 5 molecules whose answers are already recorded.
In [3]: df
Out[3]:
                                   molecule         target_entity      cat
0  CNC(C)Cc1ccc2c(c1)OCO2 (stereo not shown)  hOCT2 (Homo sapiens)  1 (yes)
1  COC(=O)C(c1ccccc1)C1CCCCN1 (stereo not shown) [Methylphenidate, methylphenidate]  hOCT2 (Homo sapiens)   0 (no)
2       CN(C)C[C@H]1CCCC[C@]1(O)c1cccc(O)c1  hOCT2 (Homo sapiens)   0 (no)
3  COc1cccc(C2(O)CCCCC2CN(C)C)c1 (stereo not shown)  hOCT2 (Homo sapiens)   0 (no)
4  CNC1(c2ccccc2F)CCCCC1=O (stereo not shown)  hOCT2 (Homo sapiens)  1 (yes)

I'd appreciate it if you could check whether CNC1(c2ccccc2Cl)CCCCC1=O (stereo not shown) has IC50 smaller than 20 µM. 1 (yes)

Does the reported IC50 of CCC[C@@H](C(=O)c1ccccc1)N1CCCC1 stay below 20 µM? 1 (yes)

====

Target Entity: hPMAT (Homo sapiens)
Construct: expressed in transfected cells
Sequence (Q7RTT9 whole entry): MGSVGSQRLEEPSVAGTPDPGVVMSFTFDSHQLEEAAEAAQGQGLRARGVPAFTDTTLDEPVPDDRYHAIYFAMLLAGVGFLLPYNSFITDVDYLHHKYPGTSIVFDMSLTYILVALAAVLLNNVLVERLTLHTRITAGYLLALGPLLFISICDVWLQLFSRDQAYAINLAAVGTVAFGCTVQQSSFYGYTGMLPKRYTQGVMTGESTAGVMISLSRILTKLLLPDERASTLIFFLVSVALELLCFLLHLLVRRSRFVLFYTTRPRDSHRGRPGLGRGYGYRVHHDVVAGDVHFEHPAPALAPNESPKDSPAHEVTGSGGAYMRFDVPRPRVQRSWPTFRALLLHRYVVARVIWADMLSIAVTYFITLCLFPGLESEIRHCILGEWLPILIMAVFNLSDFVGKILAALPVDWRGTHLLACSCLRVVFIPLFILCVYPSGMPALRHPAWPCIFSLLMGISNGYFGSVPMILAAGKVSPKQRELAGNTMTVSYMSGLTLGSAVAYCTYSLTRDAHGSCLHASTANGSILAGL
Experiment Summary: [3H]MPP+ uptake inhibition assay, HEK293 cells stably expressing hPMAT
Format: cell-based
Condition Description: HEK293 stably expressing hPMAT; 0.05 μM [3H]MPP+; 10 min pre-incubation, 10 min uptake; brackets in Table S1 = 95%-CI; n.s. = non-significant
Assay Metric: IC50 hPMAT (inhibitory potency, [3H]MPP+ uptake)

>>> df
                                   compound  reported_measurement
0  COC(=O)[C@H]1[C@@H](OC(=O)c2ccccc2)C[C@@H]2CC[C@H]1N2C                  n.s.
1       CN(C)C[C@H]1CCCC[C@]1(O)c1cccc(O)c1                  n.s.
2  NC(=O)C[S+]([O-])C(c1ccccc1)c1ccccc1 (stereo not drawn)                  n.s.
